test: inhibitors of Chlamydomonas gravitaxis, primary screen, whole organism, Chlamydomonas reinhardtii, WT vs cilia-less mutant, absorbance, 96-well (AID 463189); conditions: OD600 absorbance, 2 days, at 10 µM;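 also: 0% = wild type cc124 cells in DMSO and 100% = ciliumless bld1 mutant cells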
Activity calls are given as the source filed them.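 The calls were made as follows: active = inhibition at or above 50% relative to wild type and mutant plate controls; inactive = inhibition below 50%.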
Hello, when you answer, please use one of the following outcomes: active, inactive

Illustrative cases are given below, each with its answer.
Cc1nn2c(-c3ccc(Cl)cc3)nnc2s1    inactive
CCOC(=O)CC(=O)CSc1nc2c(cc1C#N)CCCCCC2    inactive
COc1ccccc1Cn1c2nc3ccccc3nc2c2c(=O)n(CC(C)C)cnc21    inactive
Cc1cc2c(c(=O)n1Cc1cccnc1)C(c1ccccc1)C(C#N)=C(N)O2 (configuration not stated)    inactive
Cc1c(NS(=O)(=O)c2cccc3nsnc23)c(=O)n(-c2ccccc2)n1C    inactive

Input line: Test call for this compound, please: `CN(C)c1ccc(-c2nn3c(-c4ccc(Cl)cc4)nnc3s2)cc1`
Output line: inactive

Input line: What call does the record list for `CCCc1cc(-c2nc(N)ncc2-c2ccc3c(c2)OCCCO3)c(O)cc1OC` ?
Output line: active

Input line: Give the logged outcome of this assay for the following compound: CCCC(=O)Nc1ccc(OCC(O)CNC(C)C)c(C(C)=O)c1 (configuration not stated)
Output line: inactive

Input line: Which outcome did this test record for the compound `COc1ccc(-n2c(SCC(N)=O)nc3sc4c(c3c2=O)CCN(C)C4)cc1` ?
Output line: inactive

Input line: Hey, what did the test say about CCOc1cccc(C2C(C#N)=C(N)Oc3cc(C)oc(=O)c32)c1OCC (configuration not stated) ?
Output line: inactive

Input line: Which outcome was assigned to N#CC12CCCCC1CC1CCCCC1(C#N)N2Cc1cccnc1 (configuration not stated) in this test?
Output line: inactive

Input line: Any idea what this test logged for C=CCNc1nnc(SC2CC(=O)N(c3ccc(OC)cc3)C2=O)s1 (configuration not stated) ?
Output line: inactive

Input line: Call for entry COc1cccc(/C(O)=C2/C(=O)C(=O)N(CCCN(C)C)C2c2cccc(Cl)c2)c1 (configuration not stated) :
Output line: inactive

Input line: Tell me the recorded outcome of this test for `Nc1[nH]nc2nc(NCc3ccccc3)c3c(c12)CCN(Cc1ccccc1)C3` .
Output line: inactive

Input line: Test call for this compound, please: `CC[C@H]1OC(=O)C[C@@H](O)[C@H](C)[C@@H](O[C@@H]2O[C@H](C)C[C@H](N(C)C)[C@H]2O)[C@@H](CC=O)C[C@@H](C)C(=O)C=C[C@]2(C)O[C@H]2[C@@H]1C`
Output line: active

Input line: Kindly provide the recorded test outcome for the following compound: `Cn1c([N+](=O)[O-])cnc1COC(N)=O`
Output line: inactive

----------
test: DUSP6 inhibitors restoring Erk phosphorylation by chemical complementation, primary imaging in DUSP6-transfected HeLa (AID 609); conditions: HeLa MKP-3 transfected, phospho-Erk imaging KS statistic; measured here: nuclear c-Myc green intensity z-score; at 10 µM; cells stimulated with TPA for 15 min
Give met when the value for z-score is at least -0.07. Give not met when it is less.

// below: answered molecules
COc1ccc2oc(=O)c(-c3nc(C)cs3)cc2c1    met
CCOc1ccc(C2=Nn3c(nnc3-c3cccnc3)SC2)cc1    met
CCN(CC)C(=O)CSC1=C(C#N)C(c2cccs2)C=C(C)N1 (stereo unspecified)    not met
Cc1ccc(N2C(=O)C3ON(c4ccccc4)C(c4ccncc4)C3C2=O)cc1 (stereo unspecified)    not met
CCOC(=O)c1oc2cc(O)cc(C)c2c(=O)c1-c1cscn1    not met

Pending molecule:
Input line: Quick check: does `CCCSc1nc(C)c(CC(=O)OCC)c(=O)[nH]1` have z-score greater than or equal to -0.07?
Output line: not met

----------
assay: inhibitors of E-selectin induction by TNFa, primary screen, imaging, HUVEC, immunofluorescence, MLSMR starter and 10KST1 sets (AID 487); conditions: HUVEC TNFalpha-induced E-selectin immunofluorescence imaging, at 2 µM; measured here: cell number, toxicity;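 also: 100% = median nuclei count of all wells on the same plate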
endpoint.name: nuclei count (%)
Please state the figure in %; there is no need to write the unit.

Completed entries (count: 3):
Brc1ccc(-c2cnc3n2CCCC3)cc1    108
CN(C)CCCN1C(=O)C(O)=C(C(=O)c2cc3ccccc3o2)C1c1ccccn1 (stereo not drawn)    137
CNc1ccccc1-c1nc2ccccc2n(C)c1=O    154

Notebook: `CNCCCC12CCC(c3ccccc31)c1ccccc12` , nuclei count read as 114

For reference, reported nuclei count for `O=S(=O)(c1ccccc1)N1CCC(N2CCN(c3ccccc3)CC2)CC1` stands at 140

Entry `CC(=O)c1ccc(O)c(CO)c1` — recorded nuclei count = 101

Value of nuclei count reported for the compound `CC(=O)c1c(C(C)=O)c(C)n(NC(=O)c2ccncc2)c1C` is 133

Value of nuclei count reported for the compound `NC(N)=NC(N)=NCCc1ccccc1` is 108

Field nuclei count (entry CC1CN(C2CCN(C(=O)c3ccccc3Cl)CC2)CC(C)O1 (stereo not drawn) ) reads 151

----------
test: inhibitors of TNFa-induced NFkB p65 translocation, primary screen, imaging, HUVEC, MLSMR starter and 10KST1 sets (AID 438); conditions: HUVEC TNFa-induced p65 nuclear translocation; measured here: nuclei count (cytotoxicity indicator), at 2.08 µM;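 also: compound added about 3h40 before a 20 min TNFalpha stimulation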
endpoint.name: cell count
Format: numeric value only, no unit, no commentary.

// known answers, use as guide
Cc1ccc(C(C)C)c(OCCNc2nc3c(c(=O)n(C)c(=O)n3C)n2C)c1    605
CC1(C)Cc2c(oc3ncn4ncnc4c23)CO1    587
CCOC(=O)c1nc(N)c(C(=O)OCC)[nH]1    405
CCn1cc(C(=O)O)c(=O)c2cc(F)c(N3CCNCC3)cc21    576
CCCCn1c(O)c(C=NCCCN(C)C)c(=O)[nH]c1=O    445

Lab book: cell count of `CCOC(=O)CSc1nc(-c2ccncc2)ccc1C#N` noted as 688

----------
We begin with a simple list: items and their reported NADPH fluorescence slope.
target: Voltage-gated potassium channel subunit beta-2 (Rattus norvegicus); assay: KvBeta positive modulators, primary screen, biochemical, NADPH fluorescence (AID 623); conditions: Recombinant KvBeta, NADPH fluorescence decrease slope, 10 min; at 10 µM; stronger effect = lower value;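 also: fluorescence intensity change per second fitted from 20 to 320 s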
Reply with the value as a number alone.

Nc1ccc(S(=O)(=O)Nc2ccccn2)cc1    -4.9e-05

According to the records, this compound `O=C(c1ccco1)N1CCN(CCOCCOc2cccc3ccccc23)CC1` displays NADPH fluorescence slope of -0.000107

Recorded result, CCCc1[nH]nc2c1C(c1c(C)nn(-c3ccccc3)c1Cl)C(C#N)=C(N)O2 (stereo unspecified) , NADPH fluorescence slope: -1.9e-06

Entry under test: CCOc1ccc(C2/C(=C(/O)c3ccc(F)cc3)C(=O)C(=O)N2CCCN(C)C)cc1 (stereo unspecified) . Its NADPH fluorescence slope was -3e-05

Field NADPH fluorescence slope (entry `Cn1c(NCc2ccco2)nc2c1c(=O)n(Cc1ccc(Cl)c(Cl)c1)c(=O)n2C` ) reads -6.1e-05

Form: compound = `CCOc1cc2nc(-c3ccc(OC)c(OC)c3)nc(N3CCOCC3)c2cc1OC` ; NADPH fluorescence slope = -1.4e-05

The measured NADPH fluorescence slope associated with `CCCCC[C@H](O)/C=C/[C@H]1C=CC(=O)[C@@H]1C/C=C\CCCC(=O)O` reads -5.4e-05

Entry `COc1ccc(Cn2c(CCCO)nc3ccccc32)cc1OC` , NADPH fluorescence slope reported as -4.3e-05

Item: COc1ccccc1C1(CC(=O)N2CCOCC2)CCOC(C(C)C)C1 (stereo unspecified) | NADPH fluorescence slope: -4.7e-05

Query CCOC(=O)c1[nH]c2cc3c(cc2c1NC(=O)CN1CCCCC1C)OCO3 (stereo unspecified) yields NADPH fluorescence slope of -2e-05

// NADPH fluorescence slope lookup, compound = CCCCCCSC1=C(C#N)C(c2ccccc2)CC(=O)N1 (stereo unspecified) , result: -6.1e-05

----------
experiment: inhibitors of TNFa-induced NFkB p65 translocation, primary screen, imaging, HUVEC, MLSMR starter and 10KST1 sets (AID 438); settings: HUVEC TNFa-induced p65 nuclear translocation; at 2 µM, stronger effect = higher value, 0% TNFa-plus-vehicle, 100% no-TNFa wells;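 also: compound added about 3h40 before a 20 min TNFalpha stimulation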;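 as to inhibition: signal is the nuclear over cytoplasmic p65 intensity ratio per well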
Catalogue of inhibition readings, one per entry.
Kindly answer with a numeric value in %, unit omitted.

For `CCCc1nc(NC2CCCCC2)c(C#N)c2c1COC(C)(C)C2` the molecule record lists inhibition as -11.1

The molecule identified as O=C(NCc1ccco1)c1cnn2c1NC(c1ccccc1)CC2C(F)(F)F (stereo unspecified) registered its inhibition at -5.5

----------
target: Voltage-gated potassium channel subunit beta-2 (Rattus norvegicus) (UniProt P62483); assay: KvBeta enzyme negative modulators, primary screen, biochemical, NADPH fluorescence (AID 622); settings: recombinant KvBeta, 4-cyanobenzaldehyde reduction, at 10 µM, stronger effect = higher value;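 also: slope of raw intensity against log time taken from 70 to 1610 s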
Sequence (P62483 whole entry, looked up): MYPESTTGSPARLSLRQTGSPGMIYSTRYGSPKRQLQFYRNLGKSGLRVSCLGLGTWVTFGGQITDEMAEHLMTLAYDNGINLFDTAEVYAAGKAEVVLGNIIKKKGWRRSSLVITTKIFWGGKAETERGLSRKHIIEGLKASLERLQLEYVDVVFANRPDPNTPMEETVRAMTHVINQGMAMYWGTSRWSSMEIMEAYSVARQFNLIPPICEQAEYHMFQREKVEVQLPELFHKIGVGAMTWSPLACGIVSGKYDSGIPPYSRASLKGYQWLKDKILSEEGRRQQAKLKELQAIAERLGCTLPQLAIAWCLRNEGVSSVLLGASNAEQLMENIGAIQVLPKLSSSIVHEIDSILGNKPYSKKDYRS
The following molecules are listed with their measured fluorescence slope values.
API doc: respond with a numeric literal and nothing else, no unit.

Examples from the recorded data:
Cn1nnc2c(sc3nc(N4CCOCC4)c4c(c32)CCCC4)c1=O    -0.348
O=C(Nc1ccc2c(c1)OCO2)c1cc2n(n1)C(C(F)(F)F)CC(c1ccccc1)N2 (stereo not drawn)    -0.544
CC(C)N=c1cc2n(-c3ccc(Cl)cc3)c3ccccc3nc-2cc1Nc1ccc(Cl)cc1    -0.535
COc1ccc(OC)c(NC(=O)CSC2=C(C#N)C(c3ccco3)C3=C(CCCC3=O)N2)c1 (stereo not drawn)    -0.404
N[C@@H](C(=O)N[C@@H]1C(=O)N2C(C(=O)O)=C(Cl)CS[C@H]12)c1ccccc1    -0.441

Considering COC(=O)C1=C(C)OC(N)=C(C#N)C1c1ccc(OC)c(OC)c1OC (stereo not drawn) , its fluorescence slope with Voltage-gated potassium channel subunit beta-2 (Rattus norvegicus) (UniProt P62483) was recorded as -0.557

Short answer on Voltage-gated potassium channel subunit beta-2 (Rattus norvegicus) (UniProt P62483) for CN1CCCN=C1COC(=O)C(O)(c1ccccc1)C1CCCCC1 (stereo not drawn) , fluorescence slope: -0.497

Entry `CC1(C)Cc2c(C#N)c(OCC(=O)c3ccc(Cl)cc3)nc(-c3ccoc3)c2CO1` : fluorescence slope on Voltage-gated potassium channel subunit beta-2 (Rattus norvegicus) (UniProt P62483) = -0.487

With Voltage-gated potassium channel subunit beta-2 (Rattus norvegicus) (UniProt P62483) as the test system, `CCOC(=O)c1nc2nc(C)c(Cl)c(=O)n2[nH]1` showed fluorescence slope of -0.497

Value (fluorescence slope, Voltage-gated potassium channel subunit beta-2 (Rattus norvegicus) (UniProt P62483)) for record `CCOC(=O)N1CCN(/C=C(\C#N)c2nc3ccccc3s2)CC1` = -0.404

Per the reported Voltage-gated potassium channel subunit beta-2 (Rattus norvegicus) (UniProt P62483) data, COc1ccc2c(c1OC)C(=O)N1c3ccccc3C(=O)N(c3ccc(F)cc3)C21 (stereo not drawn) has fluorescence slope of -0.305

Query `CCCC(=O)O[C@]1(C(=O)CCl)[C@@H](C)C[C@H]2[C@@H]3CCC4=CC(=O)C=C[C@]4(C)[C@@]3(F)C(=O)C[C@@]21C` on Voltage-gated potassium channel subunit beta-2 (Rattus norvegicus) (UniProt P62483); fluorescence slope returned: -0.535

CC(C)(C)C1CCC2(CC1)C(C#N)=C(SCC(=O)Nc1ccccc1)NC(=O)C2C#N (stereo not drawn) on Voltage-gated potassium channel subunit beta-2 (Rattus norvegicus) (UniProt P62483) gives fluorescence slope = -0.461

Tested on Voltage-gated potassium channel subunit beta-2 (Rattus norvegicus) (UniProt P62483), the item `CCCCOC(=O)Nc1ccc(S(=O)(=O)Nc2nc(C)cc(C)n2)cc1` showed fluorescence slope equal to -0.439

Item `CN(C)c1nc2sc3c(c2c(=O)n1C)CC(C)(C)OC3` was tested on Voltage-gated potassium channel subunit beta-2 (Rattus norvegicus) (UniProt P62483); the reported fluorescence slope is -0.514

Value sought: fluorescence slope, system Voltage-gated potassium channel subunit beta-2 (Rattus norvegicus) (UniProt P62483), item `CCOC(=O)CSc1nc2ccccc2c(=O)n1C` . Result: -0.523

Entry `Cc1ccc(C(C)C)c(OCCNc2nc3c(c(=O)n(C)c(=O)n3C)n2C)c1` under Voltage-gated potassium channel subunit beta-2 (Rattus norvegicus) (UniProt P62483) had fluorescence slope of -0.422

Note to self: fluorescence slope of `OC[C@H]1O[C@@H](n2cnc3c(NC4CCCC4)ncnc32)[C@H](O)[C@@H]1O` with Voltage-gated potassium channel subunit beta-2 (Rattus norvegicus) (UniProt P62483) was -0.459

Measured on Voltage-gated potassium channel subunit beta-2 (Rattus norvegicus) (UniProt P62483), `CCc1nc2sc3c(c2c(=O)o1)CCCC3` has a documented fluorescence slope of -0.413

The molecule `Clc1cccc(-c2nn3c(-c4cccc(Cl)c4)nnc3s2)c1` on Voltage-gated potassium channel subunit beta-2 (Rattus norvegicus) (UniProt P62483): fluorescence slope was -0.412
